systemUnderTest: T1, human IL-17A (construct not stated) (human, UniProt Q16552 24-155, limits assumed)
T1 construct: also called huIL-17A; human IL-17A biotin
T1 sequence: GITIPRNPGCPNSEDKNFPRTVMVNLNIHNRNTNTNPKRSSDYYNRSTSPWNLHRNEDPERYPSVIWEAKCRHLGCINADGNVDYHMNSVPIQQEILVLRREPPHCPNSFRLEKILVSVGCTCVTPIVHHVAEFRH
assayExplanation: ELISA on coated huIL-17A, crude Fab extract, wash of at least 3 h

| binder | Off-rate ELISA (normalized to XAB1 Fab) |
| --- | --- |
| MB453 (Fab, V domains shown, heavy chain C-terminal Flag tag) VH: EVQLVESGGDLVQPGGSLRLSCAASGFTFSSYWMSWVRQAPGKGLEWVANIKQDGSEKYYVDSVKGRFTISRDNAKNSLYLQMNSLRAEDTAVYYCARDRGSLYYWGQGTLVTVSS VL: AIQLTQSPSSLSASVGDRVTITCRPSQGIVFWLAWYQQKPGKAPKLLIYDASSLENGVPSRFSGSGSGTDFTLTISSLQPEDFATYYCQQFNSYPLTFGGGTKVEIK | 43.3 ratio to XAB1 Fab |
| MB448 (Fab, V domains shown, heavy chain C-terminal Flag tag) VH: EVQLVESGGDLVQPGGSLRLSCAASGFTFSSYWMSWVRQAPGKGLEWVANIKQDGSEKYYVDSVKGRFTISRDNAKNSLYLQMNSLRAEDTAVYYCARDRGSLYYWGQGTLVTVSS VL: AIQLTQSPSSLSASVGDRVTITCRPSQGIVWMLAWYQQKPGKAPKLLIYDASSLENGVPSRFSGSGSGTDFTLTISSLQPEDFATYYCQQFNSYPLTFGGGTKVEIK | 40.4 ratio to XAB1 Fab |
| MB483 (Fab, V domains shown, heavy chain C-terminal Flag tag) VH: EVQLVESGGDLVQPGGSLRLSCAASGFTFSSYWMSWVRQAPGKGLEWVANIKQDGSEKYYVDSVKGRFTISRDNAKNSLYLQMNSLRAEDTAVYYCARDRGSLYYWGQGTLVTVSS VL: AIQLTQSPSSLSASVGDRVTITCRPSQGIFWTLAWYQQKPGKAPKLLIYDASSLENGVPSRFSGSGSGTDFTLTISSLQPEDFATYYCQQFNSYPLTFGGGTKVEIK | 47.1 ratio to XAB1 Fab |
| MB463 (Fab, V domains shown, heavy chain C-terminal Flag tag) VH: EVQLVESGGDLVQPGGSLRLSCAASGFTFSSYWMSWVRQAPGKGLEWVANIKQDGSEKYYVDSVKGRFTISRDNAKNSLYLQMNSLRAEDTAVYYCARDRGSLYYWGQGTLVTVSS VL: AIQLTQSPSSLSASVGDRVTITCRPSQGIYFELAWYQQKPGKAPKLLIYDASSLENGVPSRFSGSGSGTDFTLTISSLQPEDFATYYCQQFNSYPLTFGGGTKVEIK | 34.2 ratio to XAB1 Fab |
